target: Cyclin-dependent kinase 11B (Homo sapiens); assay: Inhibition of CDK11 in human PC3 cell lysates at 10 uM using desthiobiotin-tagged ATP probe AX9989 followed by trypsinization by LC/MS analysis; settings: PC-3
recorded.endpoint: inhibition

Exercise: Report inhibition for CCC[C@@H](NC(=O)c1ccc2nc(N[C@H]3CC[C@H](O)CC3)c3nccn3c2c1)c1ccccc1 please.
Solution: < 35%

Exercise: Report inhibition for O=C(NC1(c2ccccc2)CC1)c1ccc2nc(N[C@H]3CC[C@H](O)CC3)c3nccn3c2c1 please.
Solution: < 35%

Exercise: Report inhibition for O=C(O)c1ccc2nc(N[C@H]3CC[C@H](O)CC3)c3nccn3c2c1 please.
Solution: < 35%
